Test system: Porcine Atria myofibrils
Assay: Myofibril ATPase assay (PK/LDH NADH-coupled), atria myofibrils
Format: biochemical
Settings: Table 7
measuredAttribute: Porcine Atria IC25 (µM)
Write down the numeric answer in µM and omit the unit.

Before answering, review these 5 worked examples.
compound	Porcine Atria IC25 / µM
O=C(CN1Cc2c(ccnc2Cl)NC1=O)N[C@H](c1ccc(F)cc1F)C(F)(F)F	0.27
C[C@H](NC(=O)CN1C(=O)Nc2cccnc2C12CC2)c1ccc(F)cc1F	0.13
C[C@H](NC(=O)CN1Cc2c(ccnc2F)NC1=O)c1ccc(F)cc1F	0.08
C[C@H](NC(=O)CN1Cc2cc(Cl)cnc2NC1=O)c1ccc(F)cc1F	100.00
C[C@@H](NC(=O)CN1Cc2cnccc2NC1=O)c1ccc(C#N)cc1F	100.00

I'm curious: which Porcine Atria IC25 was measured for "N#Cc1cnc2c(n1)CC[C@H]2NC(=O)CN1C(=O)Nc2ccc(C#N)nc2C12CC2" tested on Porcine Atria myofibrils? 6.42

Lab note: need Porcine Atria IC25 with Porcine Atria myofibrils for entry "Cc1nccc2c1CN(CC(=O)N[C@@H](C)c1ccc(F)cc1F)C(=O)N2" , please look it up. 4.20

----------
Molecular target: Porcine Ventricle myofibrils (left ventricle of Yucatan minipigs) (Sus scrofa)
Construct: Myofibrils from porcine cardiac muscle was isolated from the left ventricle of Yucatan minipigs; tissue Exemplar Genetics; host or cells: left ventricle of Yucatan minipigs
Sequence (P79293 whole entry): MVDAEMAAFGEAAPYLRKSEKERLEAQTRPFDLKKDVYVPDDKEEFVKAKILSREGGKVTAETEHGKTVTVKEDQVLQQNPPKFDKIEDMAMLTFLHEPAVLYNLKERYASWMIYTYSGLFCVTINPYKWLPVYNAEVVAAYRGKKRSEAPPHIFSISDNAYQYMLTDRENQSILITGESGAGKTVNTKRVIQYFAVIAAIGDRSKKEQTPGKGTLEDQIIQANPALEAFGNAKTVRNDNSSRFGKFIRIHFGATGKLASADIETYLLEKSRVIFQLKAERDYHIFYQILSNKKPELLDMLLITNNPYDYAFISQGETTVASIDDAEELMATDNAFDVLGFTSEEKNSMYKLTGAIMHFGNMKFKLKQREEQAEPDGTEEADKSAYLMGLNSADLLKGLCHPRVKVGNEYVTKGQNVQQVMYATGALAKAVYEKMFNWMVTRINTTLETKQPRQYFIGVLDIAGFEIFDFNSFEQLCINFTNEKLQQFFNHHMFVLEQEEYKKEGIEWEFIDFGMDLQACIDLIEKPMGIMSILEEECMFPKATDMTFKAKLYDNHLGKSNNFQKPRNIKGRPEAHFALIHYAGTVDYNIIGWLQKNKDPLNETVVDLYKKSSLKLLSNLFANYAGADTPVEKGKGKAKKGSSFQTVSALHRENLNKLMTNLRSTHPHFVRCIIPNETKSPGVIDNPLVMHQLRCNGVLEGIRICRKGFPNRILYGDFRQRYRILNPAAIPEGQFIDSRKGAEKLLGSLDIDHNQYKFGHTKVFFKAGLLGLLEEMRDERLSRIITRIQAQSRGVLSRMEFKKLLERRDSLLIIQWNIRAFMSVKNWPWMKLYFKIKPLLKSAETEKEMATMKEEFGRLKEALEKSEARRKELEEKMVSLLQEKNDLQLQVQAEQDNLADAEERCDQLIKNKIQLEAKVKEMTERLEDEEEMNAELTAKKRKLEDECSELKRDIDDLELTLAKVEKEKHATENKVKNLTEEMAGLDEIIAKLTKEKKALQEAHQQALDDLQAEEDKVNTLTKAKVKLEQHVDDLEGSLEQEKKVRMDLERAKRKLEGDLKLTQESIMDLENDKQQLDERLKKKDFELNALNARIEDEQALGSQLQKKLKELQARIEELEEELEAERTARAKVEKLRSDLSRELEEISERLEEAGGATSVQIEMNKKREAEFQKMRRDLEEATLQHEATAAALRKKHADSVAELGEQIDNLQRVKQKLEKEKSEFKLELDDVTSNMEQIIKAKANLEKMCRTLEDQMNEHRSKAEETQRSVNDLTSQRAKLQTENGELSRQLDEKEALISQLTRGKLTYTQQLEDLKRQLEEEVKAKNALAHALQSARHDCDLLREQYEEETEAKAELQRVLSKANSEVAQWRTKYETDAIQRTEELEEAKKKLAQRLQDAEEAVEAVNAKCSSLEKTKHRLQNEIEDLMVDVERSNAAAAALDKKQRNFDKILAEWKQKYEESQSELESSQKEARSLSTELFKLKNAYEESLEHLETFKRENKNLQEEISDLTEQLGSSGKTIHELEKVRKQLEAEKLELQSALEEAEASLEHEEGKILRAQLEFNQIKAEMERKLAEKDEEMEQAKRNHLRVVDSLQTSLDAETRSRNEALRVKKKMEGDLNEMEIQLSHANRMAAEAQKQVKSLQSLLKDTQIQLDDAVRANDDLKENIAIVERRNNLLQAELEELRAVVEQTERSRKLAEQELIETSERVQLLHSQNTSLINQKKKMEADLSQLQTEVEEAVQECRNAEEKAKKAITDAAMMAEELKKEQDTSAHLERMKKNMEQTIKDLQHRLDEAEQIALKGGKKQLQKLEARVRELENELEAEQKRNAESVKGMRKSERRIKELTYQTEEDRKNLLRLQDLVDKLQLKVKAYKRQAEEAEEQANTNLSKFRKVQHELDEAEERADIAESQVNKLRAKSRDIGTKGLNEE
Assay: Myofibril ATPase assay (PK/LDH NADH-coupled), ventricle myofibrils
Format: biochemical
Details: Table 8
Please assign a class to every record based on measured Porcine Ventricle IC25, with ranges low band (below 4 µM), middle band (4 µM to below 60 µM), high band (60 µM or more)

molecule	labelClass
C[C@@H](NC(=O)CN1Cc2cc(F)ccc2NC1=O)c1ccc(F)cc1F [Compound B177]	high band
Cc1cnncc1C(C)NC(=O)CN1Cc2c(ccc(F)c2F)NC1=O (single isomer, unassigned) [Compound B47]	high band
C[C@H](NC(=O)CN1C(=O)Nc2ccc(F)cc2C12CC2)c1ccc(C#N)cn1 [Compound B138]	high band
C[C@H](NC(=O)CN1Cc2c(ccc(F)c2F)NC1=O)c1ccc(C(F)(F)F)cn1 [Compound B108]	low band
C[C@H](NC(=O)CN1C(=O)Nc2ccc(F)cc2C12CC2)c1ccc(F)cc1F [Compound B221]	low band
C[C@@H](NC(=O)CN1Cc2cc(F)ccc2NC1=O)c1ccc(C#N)cc1F [Compound B205]	middle band
C[C@@H](NC(=O)CN1C(=O)Nc2ccc(F)cc2C12CC2)c1ccc(C#N)nn1 [Compound B334]	low band
Cc1ncc(C#N)nc1[C@@H](C)NC(=O)CN1Cc2c(ccc(F)c2F)NC1=O [Compound B348]	middle band

Class (by measured Porcine Ventricle IC25) for Cc1nc(C#N)cnc1[C@@H](C)NC(=O)CN1Cc2c(ccc(F)c2F)NC1=O [Compound B54] low band

Lab note: sort C[C@@H](NC(=O)CN1C(=O)Nc2ccc(F)c(F)c2C12CC2)c1cnc(C#N)cn1 [Compound B314] into the matching Porcine Ventricle IC25 band. low band

----------
Test system: Porcine Atria myofibrils
Test: Myofibril ATPase assay (PK/LDH NADH-coupled), atria myofibrils
Type: biochemical
Details: Table 7
Response field label: string, one of criterion met (Porcine Atria IC25 strictly below 30 µM) or criterion not met.

compound	labelClass
C[C@H](NC(=O)CN1Cc2c(ccnc2Cl)NC1=O)c1ccc(F)cc1F [Compound N128]	criterion met

Decide: Porcine Atria IC25 of O=C(CN1C(=O)Nc2cccnc2C12CC2)N[C@H](CO)c1ccc(F)cc1F [Compound N27] strictly below 30 µM? criterion not met

Please state whether Porcine Atria IC25 is below 30 µM for C[C@@H](NC(=O)CN1Cc2nc(C#N)ccc2NC1=O)c1ncc(F)cc1F [Compound N58] criterion not met

In plain terms, does N#Cc1cnc2c(c1)CC[C@@H]2NC(=O)CN1C(=O)Nc2cccnc2C12CC2 [Compound N2] come in under 30 µM for Porcine Atria IC25? criterion met

Take the compound C[C@H](NC(=O)CN1C(=O)Nc2ccc(C#N)nc2C12CC2)c1ncc(F)cc1F [Compound N15] and say whether its Porcine Atria IC25 is less than 30 µM. criterion met

Porcine Atria IC25 strictly < 30 µM for this compound? C[C@@H](NC(=O)CN1Cc2c(ccnc2C#N)NC1=O)c1ccc(C#N)cc1F [Compound N22] criterion not met

Find out if reported Porcine Atria IC25 for CC(C)C[C@H](C(=O)N[C@@H](C)c1ccc(F)cc1F)N1Cc2nc(F)ccc2NC1=O [Compound N90] is less than 30 µM criterion not met

These entries and their values trace back to patent US12509431B2.
